The measurements presented in this section are drawn from patent US4071680A.

Percent Inhibition of tumor growth: recorded values
# Test system: Sarcoma 180 Tumor
# Type: in vivo, albino mice
# Study conditions: 100 mg/kg × 8, ip

| Compound | Value units | Percent Inhibition of tumor growth |
| --- | --- | --- |
| C[C@H]1O[C@@H](n2ccc(=O)[nH]c2=O)[C@H](O)[C@@H]1O [5'-Deoxyuridine, reference compound] | % | 41 |
| C[C@H]1O[C@@H](n2cc(F)c(=O)[nH]c2=O)C[C@@H]1O [2',5'-Dideoxy-5-Fluorouridine, reference compound] | % | 37 |
| C[C@H]1O[C@@H](n2cc(F)c(N)nc2=O)[C@H](O)[C@@H]1O [5'-Deoxy-5-Fluorocytidine] | % | 86 |
| C[C@H]1O[C@@H](n2cc(F)c(=O)[nH]c2=O)[C@H](O)[C@@H]1O [5'-Deoxy-5-Fluorouridine] | % | 88 |
